Value source: paper PMC6112376

Tested on: rat primary hepatocytes
EXPERIMENTAL_ENDPOINT: MMP assays efficacy (%) Rat Hepatocytes

Below are worked cases with known answers.
INSERT INTO assay_data (molecule, assay_result) VALUES
  ('O=[Se](O)O [Selenious acid]', '-75±56%'),
  ('O=c1oc2ccccc2c(O)c1C1CCCc2ccccc21 (stereo not shown) [Coumatetralyl]', '-110±37%'),
  ('O=c1cc(-c2ccc(O)cc2)oc2cc(O)cc(O)c12 [Apigenin]', '-66±35%'),
  ('Nc1ccc(Cc2ccc(N)c(Cl)c2)cc1Cl [4,4''-Methylenebis(2-chloroaniline)]', '-52±15%'),
  ('Cc1ccc2c(c1N)C(=O)c1ccccc1C2=O [Compound 1-Amino-2-methylanthraquinone]', '-85±28%'),
  ('Cc1cc(C(F)(C(F)(F)F)C(F)(F)F)ccc1NC(=O)c1cccc(I)c1C(=O)NC(C)(C)CS(C)(=O)=O [Flubendiamide]', '-80±23%');

Provide the reported MMP assays efficacy (%) Rat Hepatocytes of each entry below, same order.
1. CCCCCCCCCCCCCC[P+](CCCC)(CCCC)CCCC.[Cl-] [Tributyltetradecylphosphonium chloride]
2. Oc1ccc2ccc3cccc4ccc1c2c34 [Compound 1-Hydroxypyrene]
3. O=[N+]([O-])c1ccc2ccc3cccc4ccc1c2c34 [Compound 1-Nitropyrene]
4. CC(C)[C@@H](Nc1ccc(C(F)(F)F)cc1Cl)C(=O)OC(C#N)c1cccc(Oc2ccccc2)c1 (stereo partly shown) [tau-Fluvalinate]
5. CC(=O)[C@]1(O)Cc2c(O)c3c(c(O)c2[C@@H](O[C@H]2C[C@H](N)[C@H](O)[C@H](C)O2)C1)C(=O)c1c(O)cccc1C3=O [Carminomycin]

1: -93±15%; 2: -49±25%; 3: -60±24%; 4: inactive; 5: inactive

Provide the reported MMP assays efficacy (%) Rat Hepatocytes of each entry below, same order.
1. Cc1c(Cl)cccc1Nc1ccccc1C(=O)O [Tolfenamic acid]
2. CCOCn1c(-c2ccc(Cl)cc2)c(C#N)c(Br)c1C(F)(F)F [Chlorfenapyr]
3. NC(=O)c1cc([N+](=O)[O-])cc([N+](=O)[O-])c1 [Nitromide]
4. CC(=O)Oc1ccc(C(c2ccc(OC(C)=O)cc2)c2ccccn2)cc1 [Bisacodyl]
5. COc1cc(Cl)ccc1Oc1ccc(Cl)cc1Cl [Methyl triclosan]

1: -105±5%; 2: -109±23%; 3: inactive; 4: -73±12%; 5: -95±27%

Provide the reported MMP assays efficacy (%) Rat Hepatocytes of each entry below, same order.
1. CC(C)C[C@H]1C(=O)N2CCC[C@H]2[C@]2(O)O[C@](NC(=O)[C@@H]3C=C4c5cccc6[nH]c(Br)c(c56)C[C@H]4N(C)C3)(C(C)C)C(=O)N12 [Bromocriptine]
2. Brc1ccc(Oc2ccc(Br)cc2Br)c(Br)c1 [2,2'4,4'-Tetrabromodiphenyl ether]

["-68±7%", "-42±10%"]

Provide the reported MMP assays efficacy (%) Rat Hepatocytes of each entry below, same order.
1. C#C[C@]1(O)CC[C@H]2[C@@H]3CCc4cc(O)ccc4[C@H]3CC[C@@]21C [Compound 17alpha-Ethinylestradiol]
2. Brc1ccc(Oc2cc(Br)c(Br)cc2Br)c(Br)c1 [2,2',4,4',5-Pentabromodiphenyl ether]

["-42±1%", "-43±30%"]
